- System: IGROV1 ovarian
- ASSAY PROCEDURE: NCI-60 one-dose screen, 48 h (100 = growth as untreated, 0 = no growth, -100 = all killed)
- CONDITION SUMMARY: 10 µM unless noted
This is part of a sample that, as a whole, favours compounds with a hit. Of some 83,000 tested, about 20% had one in any assay.
OBSERVABLE: growth (%)
Output spec: scalar in %, unitless text.

Which growth is listed for O=C1Nc2ccc(I)cc2C1=O ?
46.6

Which growth reading was recorded for the compound CCOC(=O)c1c(C)nc2c(c1N)CC(=O)N2Cc1cc(F)cc(Cl)c1 ?
102

For the compound shown here, c1ccc(C2=NN[C@H](c3cn(-c4ccccc4)nc3-c3ccccc3)C2)cc1 , give the reported growth.
62.1

Fill in: growth of CCOC(=O)CNP(=O)(OC[C@@H](Cc1ccccc1)NC(=O)c1cc2ccccc2s1)Oc1ccccc1 (stereo not given in full) is ___
79.9

# growth lookup, item CCOC(=O)C1=NN(c2ccccc2)C(=O)/C1=C\N1C(=O)CC(=O)NC1=S
106

// returns reported growth for input Fc1ccc(-c2nn(-c3ccccc3)cc2-c2nc3ccccc3o2)cc1
82.1

Given OCCCC1CCN(C(Cc2ccccc2)c2ccccc2)CC1 (stereo not given) , state its recorded growth.
96.8

Item under review: COc1ccc(/C=C2\COc3ccc(O)c(O)c3C2=O)cc1 . Reported growth?
1.03

Reported growth, compound COC(=O)c1cc(-c2ccccc2)[nH]c1N/N=C/c1c(Cl)cccc1Cl : ____
-44.5

Fill in: growth of COc1ccc(C(=S)N2CCN(c3ccccc3Cl)CC2)cc1OC is ___
105

Fill in: growth of Cc1nc2c(=O)[nH]c(SCC(=O)Nc3cccc(F)c3)nc2[nH]c1=O is ___
108

Can you share its growth? I mean this compound: C=C(C)[C@@H]1CC[C@]2(C(=O)NCCNCCN)CC[C@]3(C)[C@H](CC[C@@H]4[C@@]5(C)C/C(=C/c6ccncc6)C(=O)C(C)(C)[C@@H]5CC[C@]43C)[C@@H]12
87.6

growth lookup needed for COc1cc(-n2cc(-c3cc(O)c(C/C=C(\C)CCC=C(C)C)c(O)c3)nn2)cc2c1O[C@]1(C)CC[C@@H](O)C(C)(C)[C@H]1C2 , thanks.
23.8

Could you share which growth value was measured for O=C(NCc1ccccc1)Nc1ccccc1CNc1nc(Nc2ccc(OCCN3CCCC3)cc2)ncc1Cl ?
100

I would be grateful if you could share the reported growth for N#Cc1c(-c2ccccc2)cc(-c2ccccc2)n(CCCCCC(=O)Nc2ccccc2N)c1=O .
45.9

Find the recorded growth belonging to O=C(Cn1c(=O)sc2nc3ccccc3nc21)Nc1ncc(Cc2cccc(Cl)c2Cl)s1 and report it.
81.3

If you can, please state the reported growth value of CN(C)CCCn1c2c(c3ncccc3c1=O)C(=O)c1ccccc1-2 .
43.8

So what's the measured growth for this one? C/C(=N\NC(=O)c1ccccc1O)c1cccc(/C(C)=N/NC(=O)c2ccccc2O)n1
61.8

Reported growth, compound CCOP(=O)(OCC)c1nc(-c2ccccc2)oc1NCc1cccnc1 : ____
100

Find the recorded growth belonging to CCOC(=O)C#Cc1c(C(=O)OCC)nnn1[C@@H]1O[C@H](CO)[C@H]2OC3(CCCCC3)O[C@H]21 and report it.
96
